Data provenance: the supplement of paper PMC8728848

Biological target: Neu5Ac(a2-3)[GalNAc(b1-4)]Gal(b1-4)GlcNAc(b1-3)GalNAc
Test: glycan array binding signal (z-score within array); higher = stronger binding
Settings: glycan notation: IUPAC condensed, linker removed
About 410 targets per protein were measured; listed, in parts, are those with the strongest signals and a random draw of the rest.
Rule: TRUE for glycan array binding signal (z-score) not less than -0.6, FALSE for anything less.

Here's what some known entries look like.
>>> assigned_label("Tp0751, 83732 (protein) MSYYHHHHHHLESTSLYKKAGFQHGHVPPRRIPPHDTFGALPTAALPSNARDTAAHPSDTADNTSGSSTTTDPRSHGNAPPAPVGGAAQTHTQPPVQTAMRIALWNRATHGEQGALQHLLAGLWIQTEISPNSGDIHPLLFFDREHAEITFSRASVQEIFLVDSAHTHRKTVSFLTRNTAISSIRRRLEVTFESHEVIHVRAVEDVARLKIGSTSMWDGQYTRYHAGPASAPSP")
"TRUE"
>>> assigned_label("Mnn9-2N3 (Aspergillus fumigatus) (protein) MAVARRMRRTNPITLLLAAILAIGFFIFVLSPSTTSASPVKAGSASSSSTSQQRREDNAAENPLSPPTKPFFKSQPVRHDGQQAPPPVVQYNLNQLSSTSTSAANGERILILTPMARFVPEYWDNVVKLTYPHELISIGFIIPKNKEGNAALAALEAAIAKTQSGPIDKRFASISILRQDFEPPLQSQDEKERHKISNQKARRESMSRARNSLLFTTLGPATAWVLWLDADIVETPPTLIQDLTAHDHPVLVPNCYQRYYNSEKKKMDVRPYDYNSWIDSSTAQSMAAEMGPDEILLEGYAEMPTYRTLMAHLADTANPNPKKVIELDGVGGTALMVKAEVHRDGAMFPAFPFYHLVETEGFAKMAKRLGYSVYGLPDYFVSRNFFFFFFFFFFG")
"FALSE"
>>> assigned_label("Protein L(B1-B4) (Finegoldia magna), Q51912 (protein) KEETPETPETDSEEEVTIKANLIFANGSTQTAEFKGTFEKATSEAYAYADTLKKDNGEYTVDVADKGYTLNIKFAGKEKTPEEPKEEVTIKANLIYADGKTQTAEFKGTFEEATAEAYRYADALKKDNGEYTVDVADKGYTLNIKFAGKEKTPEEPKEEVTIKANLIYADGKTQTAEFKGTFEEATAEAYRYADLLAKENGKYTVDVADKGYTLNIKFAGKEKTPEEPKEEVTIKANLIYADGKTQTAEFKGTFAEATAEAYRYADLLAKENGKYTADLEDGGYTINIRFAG")
"TRUE"
>>> assigned_label("PEB1 (Campylobacter jejuni), Q0P9X8 (protein) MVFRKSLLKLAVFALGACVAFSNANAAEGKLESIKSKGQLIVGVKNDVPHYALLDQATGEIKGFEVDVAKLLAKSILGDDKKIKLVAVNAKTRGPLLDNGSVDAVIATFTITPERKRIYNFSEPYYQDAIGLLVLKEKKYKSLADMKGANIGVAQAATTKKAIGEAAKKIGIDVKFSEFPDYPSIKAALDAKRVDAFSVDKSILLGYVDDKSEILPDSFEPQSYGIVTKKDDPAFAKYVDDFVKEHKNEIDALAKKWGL")
"FALSE"
>>> assigned_label("CBM13 2a (Mycobacterium tuberculosum), P64849 (protein) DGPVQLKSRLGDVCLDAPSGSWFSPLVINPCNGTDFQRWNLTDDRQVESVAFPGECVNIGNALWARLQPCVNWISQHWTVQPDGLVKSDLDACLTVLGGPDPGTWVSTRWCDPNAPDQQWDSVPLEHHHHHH")
"TRUE"

Quick check: does rPitB (Streptococcus pneumoniae), A0A0I7U739 (protein) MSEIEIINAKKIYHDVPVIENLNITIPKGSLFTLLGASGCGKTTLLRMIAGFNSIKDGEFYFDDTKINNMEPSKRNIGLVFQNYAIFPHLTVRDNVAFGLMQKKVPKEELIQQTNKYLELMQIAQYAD have glycan array binding signal (z-score) greater than or equal to -0.6? TRUE

I'd appreciate it if you could say whether LecB LY19 (Pseudomonas aeruginosa) (protein) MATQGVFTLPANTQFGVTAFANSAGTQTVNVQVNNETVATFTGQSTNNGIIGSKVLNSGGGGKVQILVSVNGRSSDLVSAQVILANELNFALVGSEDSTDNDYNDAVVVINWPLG has glycan array binding signal (z-score) at least equal to -0.6. TRUE
